molecule	melting point
O=C(NN1C(=O)c2ccccc2C1=O)c1ccc(N2C(=O)c3ccccc3C2=O)cc1	316 to 318 °C
COc1ccc(C(=O)NNC(=O)c2ccc(NC(=O)c3ccc(OC)cc3)cc2)cc1 [Compound 10d]	264 to 266 °C
O=C(NNC(=O)c1ccccc1C(=O)O)c1ccc(NC(=O)c2ccccc2C(=O)O)cc1	186 °C
